Catalogue of pIC50 values
- TARGET ENTITY: Threonine aspartase 1 (Homo sapiens, UniProt Q9H6P5)
- Sequence (Q9H6P5 whole entry): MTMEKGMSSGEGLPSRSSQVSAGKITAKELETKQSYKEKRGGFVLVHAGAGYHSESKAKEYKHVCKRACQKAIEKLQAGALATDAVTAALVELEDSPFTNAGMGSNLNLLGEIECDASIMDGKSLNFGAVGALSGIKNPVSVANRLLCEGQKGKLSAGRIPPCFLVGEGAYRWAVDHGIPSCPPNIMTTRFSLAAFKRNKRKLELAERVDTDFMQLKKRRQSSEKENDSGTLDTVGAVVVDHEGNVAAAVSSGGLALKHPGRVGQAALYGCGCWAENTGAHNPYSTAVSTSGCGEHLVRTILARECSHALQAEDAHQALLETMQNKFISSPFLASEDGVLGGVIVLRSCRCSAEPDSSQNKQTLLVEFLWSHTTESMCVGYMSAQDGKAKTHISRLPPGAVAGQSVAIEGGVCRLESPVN
- TEST: Inhibition of recombinant Taspase1 (unknown origin) using [35S]-methionine labeled human MLL1 (2400-2900 residues) as substrate preincubated for 30 mins followed by substrate addition measured after 30 mins by SDS-PAGE based autoradiography
pIC50: −log10 of the molar value. Residues, ends and D or L forms follow the SMILES beside them. *: point of attachment. CH2Cl = ClC*

**Q:** Fill blank: measured pIC50 of the compound CC[C@H](C)[C@H](NC(C)=O)C(=O)N[C@@H](CO)C(=O)N[C@@H](CCC(N)=O)C(=O)N[C@@H](CC(C)C)C(=O)N[C@@H](CC(=O)O)C(=O)CCl (Ac-ISQLD-CH2Cl) is ____.
**A:** < 4.00

From here, focus on the item given below.
**Q:** What does the record list as pIC50 for CC[C@H](C)[C@H](NC(=O)[C@H](CCCCN)NC(C)=O)C(=O)N[C@@H](CO)C(=O)N[C@@H](CCC(N)=O)C(=O)N[C@@H](CC(C)C)C(=O)N[C@H](C=O)CC(=O)O (Ac-KISQLD-aldehyde) ?
**A:** < 4.00
